Values were extracted from PubChem BioAssay.

- test: stimulators of nuclear beta-catenin in C2C12, primary screen, imaging, WNT3A-conditioned medium, mouse C2C12, NPC library (AID 1117326); note: reference of the scale not given here
- conditionParameters: at 10 µM, hits give high values
measureName: nuclear beta-catenin stimulation (%)
All answers are understood in %, so give the number only.

Below, each entry is followed by its recorded nuclear beta-catenin stimulation result.
| molecule | measureName | units | experimentalValue |
| --- | --- | --- | --- |
| CCCCC(CC)COC(=O)/C=C/c1ccc(OC)cc1 (configuration not stated) | nuclear beta-catenin stimulation | % | -1.6 |
| O=C(O)c1cc(=O)c2c(OCC(O)COc3cccc4oc(C(=O)O)cc(=O)c34)cccc2o1 | nuclear beta-catenin stimulation | % | -1.8 |
| CCOC(=O)C1=C(O)c2ccccc2S(=O)(=O)N1C | nuclear beta-catenin stimulation | % | -1.5 |
| NS(=O)(=O)c1ccc(Cl)c(S(N)(=O)=O)c1 | nuclear beta-catenin stimulation | % | -2.3 |
| OC1(c2ccccc2)CCNCC1 | nuclear beta-catenin stimulation | % | 0.2 |
| COc1cc(NC(C)CCCN)c2ncccc2c1 (configuration not stated) | nuclear beta-catenin stimulation | % | 1.4 |

Proceed to the following item.
Input line: I am curious: what nuclear beta-catenin stimulation value has been reported for CCC(C)(C)C(=O)O[C@H]1C[C@@H](C)C=C2C=C[C@H](C)[C@H](CC[C@@H]3C[C@@H](O)CC(=O)O3)[C@H]21 ?
Output line: 15.9
